- Assay notes: Solubility (Test F)
- Assay type: physicochemical
- Stated conditions: arithmetic mean if run multiple times
Measured solubility accompanies every entry in the list below.
A number alone suffices; assume µM.

Given item Cc1cc(F)c(O[C@H]2CC[C@@](C)(C(=O)O)CC2)cc1C(=O)N[C@@H]1[C@H]2CC[C@H](C2)[C@@H]1C(=O)NCC1(C)CCC1 [Example 5] , the value recorded as its solubility is 800

Memo: COc1cc(F)c(-c2cnn(CCC(=O)O)c2)cc1C(=O)N[C@@H]1[C@H]2CC[C@H](C2)[C@@H]1C(=O)Nc1cccc(S(=O)(=O)C(F)(F)F)c1 [Example 255] , reported solubility: 1000

Per the record, COc1cc(F)c(Cc2cnn(CC(=O)O)c2)cc1C(=O)N[C@@H]1[C@H]2CC[C@H](C2)[C@@H]1C(=O)Nc1cccc(S(=O)(=O)C(F)(F)F)c1 [Example 220] has solubility of 940

Next:
Kindly note the recorded solubility for COc1cc(F)c(O[C@H]2CC[C@@H](C(=O)O)CC2)cc1C(=O)N[C@@H]1[C@H]2CC[C@H](C2)[C@@H]1C(=O)Nc1cc(C(F)(F)F)ncn1 [Example 31] , which is 940

Noted for COc1cc(F)c(O[C@H]2CC[C@@](CO)(C(=O)O)CC2)cc1C(=O)N[C@@H]1[C@H]2CC[C@H](C2)[C@@H]1C(=O)NCC1(C(F)(F)F)CCC1 [Example 365] : its solubility reads 980

* * *

- Assayed system: human RXFP1 (Homo sapiens, UniProt Q9HBX9)
- Sequence (Q9HBX9 1-757): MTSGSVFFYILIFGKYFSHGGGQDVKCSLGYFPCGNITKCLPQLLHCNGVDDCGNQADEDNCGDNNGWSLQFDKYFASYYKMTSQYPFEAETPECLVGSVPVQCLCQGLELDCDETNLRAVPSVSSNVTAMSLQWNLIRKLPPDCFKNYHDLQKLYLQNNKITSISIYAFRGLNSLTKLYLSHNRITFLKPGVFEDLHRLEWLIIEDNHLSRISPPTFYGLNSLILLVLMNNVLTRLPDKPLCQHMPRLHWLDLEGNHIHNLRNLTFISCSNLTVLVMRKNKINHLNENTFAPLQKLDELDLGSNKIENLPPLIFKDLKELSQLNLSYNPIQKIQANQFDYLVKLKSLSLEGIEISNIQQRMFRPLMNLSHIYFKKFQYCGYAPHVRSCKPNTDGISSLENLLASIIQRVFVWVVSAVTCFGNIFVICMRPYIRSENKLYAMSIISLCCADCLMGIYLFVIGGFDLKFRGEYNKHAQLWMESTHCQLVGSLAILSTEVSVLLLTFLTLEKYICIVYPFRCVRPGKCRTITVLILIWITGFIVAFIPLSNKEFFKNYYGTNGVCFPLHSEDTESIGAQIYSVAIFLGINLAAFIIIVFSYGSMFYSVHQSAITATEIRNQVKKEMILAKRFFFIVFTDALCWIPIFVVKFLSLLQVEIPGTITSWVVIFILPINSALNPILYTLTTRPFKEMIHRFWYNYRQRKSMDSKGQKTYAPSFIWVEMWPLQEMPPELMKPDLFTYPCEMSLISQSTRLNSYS
- Assay notes: RXFP1 Hu cAMP (Test A)
- Assay type: cell-based
- Parameters: expressed in transfected cells; host or cells: Jump-In T-REx CHO-K1 cells (ThermoFisher), induced with 10 ng/ml doxycycline for 24 h
- Stated conditions: RXFP1 Hu cAMP
As shown below, each of these molecules has a reported Test A Sinf value.
# value in %; strip the unit string

Reported Test A Sinf of COc1cc(F)c(-c2ccc(CC(=O)O)cc2)cc1C(=O)N[C@@H]1CCC[C@@H]1C(=O)Nc1cccc(S(=O)(=O)C(F)(F)F)c1 [Example 320] : 119

Query COc1cc(F)c(O[C@H]2CC[C@@H](C(=O)O)CC2)cc1C(=O)N[C@@H]1[C@H]2CC[C@H](C2)[C@@H]1C(=O)N[C@@H](C)C(C)(C)C [Example 199] yields Test A Sinf of 100

The molecule listed as COc1cc(C#N)c(O[C@H]2CC[C@@](C)(C(=O)O)CC2)cc1C(=O)NC1C2C=CC(CC2)C1C(=O)NCC1(C)CCC1 (single isomer, unassigned) [Example 540] has a reported Test A Sinf of 104

// Test A Sinf value for COc1cc(F)c(OC2CCC(CO)(C(=O)O)CC2)cc1C(=O)NC1CC(OC)CC1C(=O)NCC1(C)CCC1 (single isomer, unassigned) [Example 551] : 107

Data point: COc1cc(F)c(O[C@@H]2CC[C@H](C(=O)O)OC2)cc1C(=O)NC1[C@H]2CC[C@H](C2)[C@@H]1C(=O)Nc1cccc(S(=O)(=O)C(F)(F)F)c1 (mixture of isomers) [Example 442] ; Test A Sinf = 103

***
Documented Test A Sinf of COc1cc(C#N)c(O[C@H]2CC[C@@](C)(C(=O)O)CC2)cc1C(=O)N[C@@H]1[C@H]2CC[C@H](C2)[C@@H]1C(=O)NC1CCC(C)(C)CC1 [Example 128] : 88

Test A Sinf recorded for this molecule, COc1cc(F)c(O[C@H]2CC[C@@H](C(=O)O)CC2)cc1C(=O)N[C@@H]1[C@H]2CC[C@H](C2)[C@@H]1C(=O)Nc1cc(C(F)(F)F)ccc1Cl [Example 26] , is 105
